Molecular target: cDNA-expressed human hepatic CYP3A4 (Homo sapiens (Human), UniProt P08684)
Sequence (P08684 whole entry): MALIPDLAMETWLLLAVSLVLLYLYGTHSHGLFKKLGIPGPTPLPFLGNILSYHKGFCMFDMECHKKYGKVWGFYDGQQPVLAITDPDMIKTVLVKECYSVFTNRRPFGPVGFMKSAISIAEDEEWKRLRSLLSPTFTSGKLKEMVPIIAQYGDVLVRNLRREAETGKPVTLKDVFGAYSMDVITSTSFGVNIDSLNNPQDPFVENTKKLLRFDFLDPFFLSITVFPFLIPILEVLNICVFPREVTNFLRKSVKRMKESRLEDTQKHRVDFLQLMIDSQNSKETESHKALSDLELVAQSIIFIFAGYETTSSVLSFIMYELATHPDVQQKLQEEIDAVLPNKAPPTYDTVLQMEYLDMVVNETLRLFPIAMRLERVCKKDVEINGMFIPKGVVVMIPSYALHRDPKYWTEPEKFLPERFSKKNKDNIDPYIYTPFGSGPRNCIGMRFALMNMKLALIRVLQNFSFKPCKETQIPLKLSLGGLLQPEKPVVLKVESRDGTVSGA
Assay: Measurement of CYP (IC50 of P450 CYP3A4), BFC substrate
Format: in vitro ADME
Conditions: 20 minutes
MEASURED_QUANTITY: pIC50
// scale note: pIC50 = -log10(conc_M); give the bare number

In the examples that follow, each entry is paired with its recorded pIC50.
C=CCN1CC(=O)N2[C@@H](Cc3ccc(O)cc3)C(=O)N(Cc3cccc4c(C(=O)NNCC(=O)OCC)cn(C)c34)C[C@@H]2N1C(=O)NCc1ccccc1 [Compound F-55] :: 5.21
C=CCN1CC(=O)N2[C@@H](Cc3ccc(O)cc3)C(=O)N(Cc3cccc4c(C(=O)N5CCN(CCO)CC5)cn(C)c34)C[C@@H]2N1C(=O)NCc1ccccc1 [Compound E-9] :: 5.17
C=CCN1CC(=O)N2[C@@H](Cc3ccc(O)cc3)C(=O)N(Cc3cccc4c(C(=O)N5CCN6CCCC6C5)cn(C)c34)C[C@@H]2N1C(=O)NCc1ccccc1 (some centres unmarked) [Compound E-43] :: 5.18

Here's the next entry for you.
Test item C=CCN1CC(=O)N2[C@@H](Cc3ccc(O)cc3)C(=O)N(Cc3cccc4c(C(=O)NNc5ccccc5)cn(C)c34)C[C@@H]2N1C(=O)NCc1ccccc1 [Compound F-60] ; cDNA-expressed human hepatic CYP3A4 (Homo sapiens (Human), UniProt P08684); reported pIC50 was 5.17

----------
Test system: MV-4-11 (human, Acute Myeloid Leukemia cell line) cells
Test: Cell growth inhibition assay, GI50 of MV-4-11
Type: cell-based
Conditions: Homo sapiens, MV4-11, 72 h, MV-4-11 cells
GI50 overview
Numbers only here, please. The scale is nM.

C=CCN1CC(=O)N2[C@@H](Cc3ccc(O)cc3)C(=O)N(Cc3cccc4c(C(=O)NCc5ccccn5)cn(C)c34)C[C@@H]2N1C(=O)NCc1ccccc1 [Compound F-42] :: 9.1
C=CCN1CC(=O)N2C(CN(Cc3cccc4c(C(=O)Nc5ccc(N)nc5)cn(C)c34)C(=O)[C@@H]2Cc2ccc(O)cc2)N1C(=O)NCc1ccccc1 (stereo partly shown) [Compound G-9] :: 19.9
C=CCN1CC(=O)N2[C@@H](Cc3ccc(O)cc3)C(=O)N(Cc3cccc4c(C(=O)N(C)Cc5ccc(N(C)C)cc5)cn(C)c34)C[C@@H]2N1C(=O)NCc1ccccc1 [Compound F-46] :: 1.3

Documented GI50 of C=CCN1CC(=O)N2[C@@H](Cc3ccc(O)cc3)C(=O)N(Cc3cccc4c(C(=O)Nc5ccc(N6CCC(OC)CC6)nc5)cn(C)c34)C[C@@H]2N1C(=O)NCc1ccccc1 [Compound G-38] : 0.6

----------
Test system: MV-4-11 (human, Acute Myeloid Leukemia cell line) cells
Assay: Cell growth inhibition assay, GI50 of MV-4-11
Type: cell-based
Settings: Homo sapiens, MV4-11, 72 h, MV-4-11 cells
Exam item: assign class 1 to entries whose GI50 is below 2 nM and class 0 to entries at or above 2 nM. Note that a value of exactly 2 nM receives class 0.

C=CCN1CC(=O)N2[C@@H](Cc3ccc(O)cc3)C(=O)N(Cc3cccc4c(C(=O)N5CCN6CCN(C(=O)OC(C)(C)C)CC6C5)cn(C)c34)C[C@@H]2N1C(=O)NCc1ccccc1 (stereo partly shown) :: class 0
C=CCN1CC(=O)N2[C@@H](Cc3ccc(O)cc3)C(=O)N(Cc3cccc4c(-c5ccc(C(=O)Nc6cccc(O)c6)cc5)cn(C)c34)C[C@@H]2N1C(=O)NCc1ccccc1 :: class 0
C=CCN1CC(=O)N2[C@@H](Cc3ccc(O)cc3)C(=O)N(Cc3cccc4c(C(=O)Nc5ccc(N(C)C)nc5)cn(C)c34)C[C@@H]2N1C(=O)NCc1ccccc1 :: class 1
C=CCN1CC(=O)N2[C@@H](Cc3ccc(O)cc3)C(=O)N(Cc3cccc4c(C(=O)N(C)CCN5CCOCC5)cn(C)c34)C[C@@H]2N1C(=O)NCc1ccccc1 :: class 0
C=CCN1CC(=O)N2[C@@H](Cc3ccc(O)cc3)C(=O)N(Cc3cccc4c(C(=O)Nc5ccc(N6CCN(C7CCCC7)CC6)nc5)cn(C)c34)C[C@@H]2N1C(=O)NCc1ccccc1 :: class 0

In: Just wondering, is GI50 of C=CCN1CC(=O)N2[C@@H](Cc3ccc(O)cc3)C(=O)N(Cc3cccc4c(C(=O)Nc5ccc(N6CCC(N7CCC7)CC6)nc5)cn(C)c34)C[C@@H]2N1C(=O)NCc1ccccc1 below 2 nM?
Out: class 1

In: Just wondering, is GI50 of C=CCN1CC(=O)N2[C@@H](Cc3ccc(O)cc3)C(=O)N(Cc3cccc4c(-c5ccc(NC(=O)c6ccc(N)nc6)cc5)cn(C)c34)C[C@@H]2N1C(=O)NCc1ccccc1 below 2 nM?
Out: class 1

In: Just wondering, is GI50 of C=CCN1CC(=O)N2C(CN(Cc3cccc4c(C(=O)Nc5ccc(CCO)cc5)cn(C)c34)C(=O)[C@@H]2Cc2ccc(O)cc2)N1C(=O)NCc1ccccc1 (stereo partly shown) below 2 nM?
Out: class 1

In: Just wondering, is GI50 of C=CCN1CC(=O)N2[C@@H](Cc3ccc(O)cc3)C(=O)N(Cc3cccc4c(C(=O)N5CCN(Cc6cccc(C)n6)CC5)cn(C)c34)C[C@@H]2N1C(=O)NCc1ccccc1 below 2 nM?
Out: class 0

In: Just wondering, is GI50 of C=CCN1CC(=O)N2[C@@H](Cc3ccc(O)cc3)C(=O)N(Cc3cccc4c(C(=O)Nc5ccc(NCCN(C)C)nc5)cn(C)c34)C[C@@H]2N1C(=O)NCc1ccccc1 below 2 nM?
Out: class 1
